System: NCI-H522 lung
Experiment: NCI tumour cell line growth inhibition, 48 h
Property Measured: TGI

For orientation, consider the following solved cases.
- CN(C)c1ccc(S(=O)Nc2ccccc2)cc1 (configuration not stated): > 100 µM
- COc1cc(/C=C/C(=O)CC(=O)/C=C/c2ccc(OC(=O)CCCCC3CCSS3)c(OC)c2)ccc1OC(=O)CCCCC1CCSS1 (configuration not stated): > 100 µM
- OCCc1ccsc1-c1sc(-c2cc(CCO)c(-c3sccc3CCO)s2)cc1CCO: 25.7 µM

Reported TGI of Nc1ncnc2n[nH]c(Nc3ccc(F)cc3)c12 : > 100 µM

The recorded TGI for OCc1ccc(-c2ccc(-c3ccc(CO)s3)o2)s1 is > 100 µM

Sample O=C1NCCN1/N=C/c1c(Cl)n(-c2ccccc2)c2ccccc12 ; TGI observed: 44.4 µM

Recorded result, O=C(O)CCC(=O)OC1N=C(c2ccccc2Cl)c2cc([N+](=O)[O-])ccc2NC1=O (configuration not stated) , TGI: > 100 µM

The compound CC(=O)[C@@]12O[C@@H]1CC1C3CCC4=CC(O)CCC4(C)C3CCC12C (some centres not stated) showed TGI equal to > 100 µM

Recorded result, Brc1ccccc1C1SCc2nc3ccccc3n21 (configuration not stated) , TGI: 33.9 µM

Form: compound = CSc1nc(NC2OCC(OC(C)=O)C(OC(C)=O)C2OC(C)=O)c(N=CC=Nc2c(NC3OCC(OC(C)=O)C(OC(C)=O)C3OC(C)=O)nc(SC)[nH]c2=O)c(=O)[nH]1 (configuration not stated) ; TGI = > 83.8 µM

// recorded TGI for COc1cc2c3c(n(C)c(=O)c2cc1OC)-c1cc2c(cc1/C3=C\CCCN)OCO2 : 23.4 µM

Memo: C[C@@H]1CCC2[C@@H](C)[C@@H](OCC(CO[C@H]3OC4O[C@@]5(C)CC[C@H]6[C@H](C)CCC([C@H]3C)[C@@]46OO5)OC(=O)CCC(=O)O)OC3O[C@@]4(C)CC[C@@H]1[C@]32OO4 (some centres not stated) , reported TGI: 15.4 µM

Consider CN(C)c1ccc(C(=N/N=C2\C(=O)Nc3ccccc32)c2ccc(N(C)C)cc2)cc1 . Its measured TGI is 0.649 µM

Item: CC1OC(OC2C(OC(=O)[C@]34CCC(C)(C)C[C@H]3C3=CC[C@@H]5[C@@]6(C)CC[C@H](OC7OC(C(=O)O)C(O)C(O)C7O)C(C)(C)[C@@H]6CC[C@@]5(C)[C@]3(C)C[C@H]4O)OCC(O)C2O)C(O)C(OC2OCC(O)(CO)C2O)C1OC1OCC(O)C(O)C1O (some centres not stated) | TGI: 16.5 µM

Reported TGI ( O=C(O)/C=C(/C(=O)O)C12CCN3CC4=CCOC5CC(=O)NC1C5C4CC32 (configuration not stated) ) = > 100 µM

TGI reading for CCCCCCOc1ccc(C(=O)NOC)cc1 : > 100 µM

Documented TGI of Cc1c2c(nn1-c1ccc(S(=O)(=O)/N=C3\SCCC(=O)N3c3ccccc3)cc1)-c1ccccc1CC2 : > 100 µM
